Provenance of the data: ChEMBL document CHEMBL5223112

Below is a list of entries, each paired with its recorded CLint scaled value.
measurement-notes: Metabolic stability in human liver microsomes assessed as intrinsic clearance
Type: ADME
condition: read-out: CLH
All answers are understood in mL/min/kg, so give the number only.

Recorded result, CCOC1=CS(=O)(=O)c2cc3c(Nc4ccc5scnc5c4)ncnc3cc21 , CLint scaled: 9.19

# compound CC1=C(C)S(=O)(=O)c2cc3c(Nc4ccc5scnc5c4)ncnc3cc21 ; its CLint scaled = 32.8

The reported CLint scaled of the compound O=S1(=O)C=C(C2CC2)c2cc3ncnc(Nc4ccc5scnc5c4)c3cc21 was 27

---

Measured half-life, listed per entry.
measurement-notes: Metabolic stability in rat liver microsomes assessed as half life
Assay type: ADME

# compound-structure-string, readout-value
rows = [
    ("CCOC1=CS(=O)(=O)c2cc3c(Nc4ccc5scnc5c4)ncnc3cc21", "2.36 h"),
    ("CC1=C(C)S(=O)(=O)c2cc3c(Nc4ccc5scnc5c4)ncnc3cc21", "0.983 h"),
]

Now, please, on to the next compound.
Documented half-life of O=S1(=O)C=C(C2CC2)c2cc3ncnc(Nc4ccc5scnc5c4)c3cc21 : 1.02 h

---

system-name: Receptor-interacting serine/threonine-protein kinase 3 (Homo sapiens, UniProt Q9Y572)
Sequence (Q9Y572 whole entry): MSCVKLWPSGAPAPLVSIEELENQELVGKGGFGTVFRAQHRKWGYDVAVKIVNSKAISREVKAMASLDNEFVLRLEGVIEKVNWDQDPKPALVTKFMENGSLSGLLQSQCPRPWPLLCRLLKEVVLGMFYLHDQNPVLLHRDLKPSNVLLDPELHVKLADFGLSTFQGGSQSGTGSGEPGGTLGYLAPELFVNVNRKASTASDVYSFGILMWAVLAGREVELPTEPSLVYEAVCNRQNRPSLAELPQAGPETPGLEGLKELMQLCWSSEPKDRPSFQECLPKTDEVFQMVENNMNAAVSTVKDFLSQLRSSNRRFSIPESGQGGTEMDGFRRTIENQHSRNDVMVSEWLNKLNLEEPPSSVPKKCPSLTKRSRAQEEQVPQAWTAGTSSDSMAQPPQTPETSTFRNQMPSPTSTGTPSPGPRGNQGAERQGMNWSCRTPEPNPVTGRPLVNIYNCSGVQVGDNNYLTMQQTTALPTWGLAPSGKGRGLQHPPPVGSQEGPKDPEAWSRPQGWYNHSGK
metric-name: pKd
When answering, recall that pKd equals minus log10 of the concentration in mol/L, and write that number alone.

Considering CCOC1=CS(=O)(=O)c2cc3c(Nc4ccc5scnc5c4)ncnc3cc21 , its pKd with Receptor-interacting serine/threonine-protein kinase 3 (Homo sapiens, UniProt Q9Y572) was recorded as 7.37

---

measurement-notes: Metabolic stability in dog liver microsomes assessed as intrinsic clearance
Format: ADME, Canis lupus familiaris
condition: read-out: CLH
metric-name: CLint scaled (mL/min/kg)
Express the result in mL/min/kg but write the number alone.

A selection of reference data follows.
# compound-structure-string, uom, CLint scaled
measured = [
    ("CC1=C(C)S(=O)(=O)c2cc3c(Nc4ccc5scnc5c4)ncnc3cc21", "mL/min/kg", 749),
    ("CCOC1=CS(=O)(=O)c2cc3c(Nc4ccc5scnc5c4)ncnc3cc21", "mL/min/kg", 133),
]

// next item, CLint scaled requested
What the record says about O=S1(=O)C=C(C2CC2)c2cc3ncnc(Nc4ccc5scnc5c4)c3cc21 : CLint scaled is 320

---

system-name: Receptor-interacting serine/threonine-protein kinase 2 (Homo sapiens, UniProt O43353)
Sequence (O43353 whole entry): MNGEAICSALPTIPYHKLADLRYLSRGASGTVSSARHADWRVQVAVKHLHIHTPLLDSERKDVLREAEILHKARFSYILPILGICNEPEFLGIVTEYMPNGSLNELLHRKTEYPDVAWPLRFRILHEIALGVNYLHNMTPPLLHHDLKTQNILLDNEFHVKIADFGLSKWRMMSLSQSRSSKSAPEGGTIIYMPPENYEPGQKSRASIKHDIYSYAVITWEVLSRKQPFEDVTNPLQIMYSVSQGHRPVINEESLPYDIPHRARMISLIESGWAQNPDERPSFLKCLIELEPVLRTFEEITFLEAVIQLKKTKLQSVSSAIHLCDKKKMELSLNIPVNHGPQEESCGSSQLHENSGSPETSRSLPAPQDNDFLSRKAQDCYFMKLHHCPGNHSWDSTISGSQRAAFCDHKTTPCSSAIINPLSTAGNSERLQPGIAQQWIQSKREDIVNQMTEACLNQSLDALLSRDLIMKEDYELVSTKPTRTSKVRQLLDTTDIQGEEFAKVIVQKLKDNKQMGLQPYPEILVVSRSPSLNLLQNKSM
measurement-notes: Binding affinity to RIPK2 (unknown origin) assessed as dissociation constant by kinomescan assay
So basically: is Kd under 30 nM? Then Yes. Not under? Then No.

Use these answered entries as a reference point.
# compound-structure-string, assigned-category
rows = [
    ("O=S1(=O)C=C(C2CC2)c2cc3ncnc(Nc4ccc5nn[nH]c5c4)c3cc21", "Yes"),
    ("CCOC1=C(C)S(=O)(=O)c2cc3c(Nc4ccc5scnc5c4)ncnc3cc21", "Yes"),
    ("O=S1(=O)C=C(C2CC2)c2cc3ncnc(Nc4n[nH]c5ccc(F)cc45)c3cc21", "Yes"),
]

Request: # check: Kd < 30 nM for CC(C)(C)S(=O)(=O)c1cc2c(Nc3ccc4scnc4c3)ncnc2cc1OCCOP(=O)(O)O
Response: Yes

Request: Record CCOC1=CS(=O)(=O)c2cc3c(Nc4ccc5scnc5c4)ncnc3cc21 : is its Kd strictly below 30 nM?
Response: Yes

Request: Threshold test, Kd < 30 nM: CC1=Cc2cc3nc(C)nc(Nc4ccc5scnc5c4)c3cc2S1(=O)=O
Response: No

Request: Consider COC1=CS(=O)(=O)c2cc3c(Nc4ccc5scnc5c4)ncnc3cc21 . Does its Kd lie strictly below 30 nM?
Response: Yes

Request: Here's an entry: O=S1(=O)C=C(c2ccc(F)cc2)c2cc3ncnc(Nc4ccc5scnc5c4)c3cc21 . Is its Kd below 30 nM?
Response: No

Request: Here's an entry: O=S1(=O)C=C(C2CC2)c2cc3ncnc(Nc4ccc5nc[nH]c5c4)c3cc21 . Is its Kd below 30 nM?
Response: No

Request: Please state whether Kd is below 30 nM for CC1=Cc2cc3ncnc(Nc4ccc5scnc5c4)c3cc2S1(=O)=O
Response: No

---

measurement-notes: Metabolic stability in monkey liver microsomes assessed as intrinsic clearance
Type: ADME, Macaca mulatta
condition: rhesus monkey, read-out: CLH
metric-name: CLint scaled (mL/min/kg)
Please respond with the number in mL/min/kg and leave the unit unwritten.

Solved cases below.
# compound-structure-string, CLint scaled, mL/min/kg
measured = [
    ("CC1=C(C)S(=O)(=O)c2cc3c(Nc4ccc5scnc5c4)ncnc3cc21", 97),
    ("CCOC1=CS(=O)(=O)c2cc3c(Nc4ccc5scnc5c4)ncnc3cc21", 53.3),
]

As a next step, examine the molecule that follows.
The reported value for O=S1(=O)C=C(C2CC2)c2cc3ncnc(Nc4ccc5scnc5c4)c3cc21 in terms of CLint scaled is 71

---

system-name: Receptor-interacting serine/threonine-protein kinase 1 (Homo sapiens, UniProt Q13546)
Sequence (Q13546 whole entry): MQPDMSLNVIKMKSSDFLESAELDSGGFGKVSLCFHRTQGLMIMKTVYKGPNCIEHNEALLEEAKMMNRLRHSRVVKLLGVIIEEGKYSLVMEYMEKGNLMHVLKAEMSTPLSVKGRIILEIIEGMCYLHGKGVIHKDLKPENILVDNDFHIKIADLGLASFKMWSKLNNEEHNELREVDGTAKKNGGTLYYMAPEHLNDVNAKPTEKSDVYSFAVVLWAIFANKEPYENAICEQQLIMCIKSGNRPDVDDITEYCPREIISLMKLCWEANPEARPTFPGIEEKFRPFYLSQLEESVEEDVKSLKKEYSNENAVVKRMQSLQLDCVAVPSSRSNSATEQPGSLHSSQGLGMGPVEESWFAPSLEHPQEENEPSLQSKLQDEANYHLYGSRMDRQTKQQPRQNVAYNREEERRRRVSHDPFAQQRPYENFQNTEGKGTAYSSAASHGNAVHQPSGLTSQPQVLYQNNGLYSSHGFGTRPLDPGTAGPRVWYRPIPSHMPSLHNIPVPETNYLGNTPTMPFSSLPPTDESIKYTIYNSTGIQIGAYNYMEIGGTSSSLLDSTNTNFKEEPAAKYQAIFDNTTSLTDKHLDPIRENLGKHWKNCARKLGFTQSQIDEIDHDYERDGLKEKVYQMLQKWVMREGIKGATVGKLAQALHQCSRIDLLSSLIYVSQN
measurement-notes: Binding affinity to RIPK1 (unknown origin) assessed as dissociation constant by kinomescan assay
pKd: −log10 of the molar value.
metric-name: pKd

In plain terms, CCOC1=CS(=O)(=O)c2cc3c(Nc4ccc5scnc5c4)ncnc3cc21 has a documented pKd of < 4.52

---

measurement-notes: Metabolic stability in rat liver microsomes assessed as intrinsic clearance
Assay type: ADME
condition: read-out: CLH
Overview of reported CLint scaled across a group of molecules:
Answer with a number only, understood to be in mL/min/kg.

# compound-structure-string, CLint scaled [mL/min/kg]
measured = [
    ("O=S1(=O)C=C(C2CC2)c2cc3ncnc(Nc4ccc5scnc5c4)c3cc21", 40.8),
]

CLint scaled measured on CC1=C(C)S(=O)(=O)c2cc3c(Nc4ccc5scnc5c4)ncnc3cc21 = 42.1

Input CCOC1=CS(=O)(=O)c2cc3c(Nc4ccc5scnc5c4)ncnc3cc21 . Output CLint scaled: 17.5

---

Recorded inhibition at 10 µM, one value per entry.
system-name: CYP2C9 (Homo sapiens)
Sequence (P11712 whole entry): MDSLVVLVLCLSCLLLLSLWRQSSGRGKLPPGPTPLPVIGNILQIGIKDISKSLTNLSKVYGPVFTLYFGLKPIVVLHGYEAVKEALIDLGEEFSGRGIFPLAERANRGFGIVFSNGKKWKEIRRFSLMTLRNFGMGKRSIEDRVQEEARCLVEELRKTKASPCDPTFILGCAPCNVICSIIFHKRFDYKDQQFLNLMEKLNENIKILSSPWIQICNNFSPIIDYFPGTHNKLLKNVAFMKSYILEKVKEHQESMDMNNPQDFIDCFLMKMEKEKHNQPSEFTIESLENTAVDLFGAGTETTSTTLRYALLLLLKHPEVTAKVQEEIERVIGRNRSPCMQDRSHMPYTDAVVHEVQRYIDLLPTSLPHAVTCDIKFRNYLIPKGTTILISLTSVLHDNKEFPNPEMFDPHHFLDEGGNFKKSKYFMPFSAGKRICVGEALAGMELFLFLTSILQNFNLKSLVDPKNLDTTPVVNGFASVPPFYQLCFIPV
measurement-notes: Inhibition of CYP2C9 (unknown origin) at 10 uM relative to control
Assay type: ADME
A number alone suffices; assume %.

# compound-structure-string, inhibition at 10 µM / %
records = [
    ("CC1=C(C)S(=O)(=O)c2cc3c(Nc4ccc5scnc5c4)ncnc3cc21", -1.42),
]

# inhibition at 10 µM (compound: CCOC1=CS(=O)(=O)c2cc3c(Nc4ccc5scnc5c4)ncnc3cc21 ) is 10.7

For this compound ( O=S1(=O)C=C(C2CC2)c2cc3ncnc(Nc4ccc5scnc5c4)c3cc21 ), measured inhibition at 10 µM is 11.9

---

measurement-notes: Metabolic stability in mouse liver microsomes assessed as half life
Assay type: ADME
Measured half-life accompanies every entry in the list below.
Just the number in min, nothing appended.

Observe how each entry below is paired with its result.
# compound-structure-string, metric-name, readout-value
rows = [
    ("CC1=C(C)S(=O)(=O)c2cc3c(Nc4ccc5scnc5c4)ncnc3cc21", "half-life", 23.7),
    ("CCOC1=CS(=O)(=O)c2cc3c(Nc4ccc5scnc5c4)ncnc3cc21", "half-life", 62.7),
]

Could you now look at the following compound, please?
Quick note, half-life for O=S1(=O)C=C(C2CC2)c2cc3ncnc(Nc4ccc5scnc5c4)c3cc21 landed at 15.9

---

Reported half-life values for a set of compounds
measurement-notes: Metabolic stability in human liver microsomes assessed as half life
Format: ADME
Express the result in h but write the number alone.

# compound-structure-string, uom, readout-value
rows = [
    ("CCOC1=CS(=O)(=O)c2cc3c(Nc4ccc5scnc5c4)ncnc3cc21", "h", 3.15),
    ("O=S1(=O)C=C(C2CC2)c2cc3ncnc(Nc4ccc5scnc5c4)c3cc21", "h", 1.07),
]

Please find the next compound below.
half-life in this record for CC1=C(C)S(=O)(=O)c2cc3c(Nc4ccc5scnc5c4)ncnc3cc21 : 0.884
